All figures here come from patent US20200216416A1.

biological target: human MET kinase F1200I (Homo sapiens, UniProt P08581, F1200I); construct: GST-tagged recombinant human MET kinase domain; test: c-Met Enzyme Assay, F1200I mutant; conditions: averaged IC50; F1200I 2 nM; 60-minute incubation at 22° C.
Sequence (P08581 1078-1345 F1200I limits assumed): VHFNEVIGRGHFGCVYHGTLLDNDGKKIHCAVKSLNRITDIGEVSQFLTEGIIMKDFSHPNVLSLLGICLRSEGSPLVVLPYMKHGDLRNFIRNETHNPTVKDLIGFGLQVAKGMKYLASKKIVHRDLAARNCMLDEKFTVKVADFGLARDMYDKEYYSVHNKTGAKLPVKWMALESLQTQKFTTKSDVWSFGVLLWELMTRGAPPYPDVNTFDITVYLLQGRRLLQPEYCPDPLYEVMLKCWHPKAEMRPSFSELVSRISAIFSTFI
recordedEndpoint: IC50 (µM)

Recorded IC50, per entry:
COc1cc2nccc(Oc3ccc(NC(=O)c4cn(CCC(C)C)cc(-c5ccc(Cl)cc5)c4=O)nc3)c2cc1OC [Example 37]
0.0164
COc1cc2nccc(Oc3ccc(NC(=O)c4cn(CC(=O)N(C)C)cc(-c5ccc(F)c(F)c5)c4=O)nc3)c2cc1OC [Example 24]
0.0112

I = COc1cc2nccc(Oc3ccc(NC(=O)c4cn(CCC(C)C)cc(-c5ccc(F)cc5)c4=O)nc3)c2cc1OC [Example 34]
II = COc1cc2nccc(Oc3ccc(NC(=O)c4cn(CC(=O)N(C)C)cc(-c5ccc(Cl)cc5)c4=O)nc3)c2cc1OC [Example 25]
QUERY: Of I and II , which shows the smaller IC50 value? The response must carry the label of the picked entry.
RESULT: I
(I: 0.0074 µM, II: 0.0115 µM)

* * *

target: human MET kinase del Ex14 (Homo sapiens, UniProt P08581, DEL963-1009); construct: GST-tagged recombinant human MET kinase domain; purchased Signal Chem; assay: c-Met Enzyme Assay, del Ex14 mutant; format: binding; conditions: averaged IC50; del Ex14 5 nM; 60-minute incubation at 22° C.; read-out: Del14 IC50
Sequence (P08581 with tags, fused parts or gaps DEL963-1009 limits assumed): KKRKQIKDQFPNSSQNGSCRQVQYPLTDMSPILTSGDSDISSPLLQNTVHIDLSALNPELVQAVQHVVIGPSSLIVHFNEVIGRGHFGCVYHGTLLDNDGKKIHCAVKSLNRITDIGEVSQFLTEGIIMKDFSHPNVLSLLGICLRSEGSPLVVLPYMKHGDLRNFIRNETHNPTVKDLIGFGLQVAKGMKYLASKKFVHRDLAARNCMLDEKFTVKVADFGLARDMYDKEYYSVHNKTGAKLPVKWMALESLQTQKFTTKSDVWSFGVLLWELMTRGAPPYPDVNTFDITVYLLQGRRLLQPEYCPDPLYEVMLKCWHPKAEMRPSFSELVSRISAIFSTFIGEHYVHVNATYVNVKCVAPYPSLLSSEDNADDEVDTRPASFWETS
recordedEndpoint: IC50 (nM)

P = COc1cc2nccc(Oc3ccc(NC(=O)c4cn(CCN(C)C)cc(-c5ccc(F)cc5)c4=O)nc3)c2cc1OC
Q = COc1cc2c(Oc3ccc(NC(=O)c4cn(C(C)C)cc(-c5ccc(F)cc5)c4=O)nc3)ccnc2cc1OCCCN1CCOCC1
QUERY: Of P and Q , which shows the smaller IC50 value? The response must carry the label of the picked entry.
RESULT: P
(P: 2.8 nM, Q: 4.5 nM)

P = COCCn1cc(C(=O)Nc2ccc(Oc3ccnc4cc(OC)c(OC)cc34)cn2)c(=O)c(-c2ccc(F)cc2)c1
Q = CCn1cc(C(=O)Nc2ccc(Oc3ccnc4ccc(OC)cc34)cn2)c(=O)c(-c2ccc(F)cc2)c1
R = COc1cc2nccc(Oc3ccc(NC(=O)c4cn(CC(=O)N5CCCC5)cc(-c5ccc(F)cc5F)c4=O)nc3)c2cc1OC
S = COc1cc2nccc(Oc3ccc(NC(=O)c4cn(CC(C)C)cc(-c5ccc(F)cc5)c4=O)nc3)c2cc1OC
T = COc1cc(-c2cn(C(C)C)cc(C(=O)Nc3ccc(Oc4ccnc5cc(OC)c(OC)cc45)cn3)c2=O)ccc1F
QUERY: Please produce an ascending ranking of these molecules based on IC50. Answer by writing out the labels in the requested order.
RESULT: P, T, S, R, Q

a = COc1cc2nccc(Oc3ccc(NC(=O)c4cn(C(C)C)cc(-c5ccc(F)cc5Cl)c4=O)nc3)c2cc1OC
b = COc1cc2nccc(Oc3ccc(NC(=O)c4cn(CCC(C)C)cc(-c5ccc(Cl)cc5)c4=O)nc3)c2cc1OC
QUERY: Consider a and b . Which of these has its IC50 at a higher number? The response must carry the label of the picked entry.
RESULT: b
